Target: T1, hANGPTL4(26-406)-His (Homo sapiens, UniProt Q9BY76)
T1 construct: purchased R&D Systems
T1 sequence (Q9BY76 26-406): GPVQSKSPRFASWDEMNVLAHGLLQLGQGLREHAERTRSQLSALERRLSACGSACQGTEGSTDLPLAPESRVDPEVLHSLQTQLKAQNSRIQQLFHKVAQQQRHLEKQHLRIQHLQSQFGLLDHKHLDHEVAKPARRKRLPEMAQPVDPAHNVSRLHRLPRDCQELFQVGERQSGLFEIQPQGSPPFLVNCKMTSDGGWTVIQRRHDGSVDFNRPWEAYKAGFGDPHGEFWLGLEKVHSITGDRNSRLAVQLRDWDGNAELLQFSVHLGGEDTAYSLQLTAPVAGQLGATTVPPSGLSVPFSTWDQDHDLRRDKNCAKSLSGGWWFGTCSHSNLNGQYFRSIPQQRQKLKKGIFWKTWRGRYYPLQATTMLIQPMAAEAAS
Experiment: BIACORE, full mAb or Fab over amino-coupled hANGPTL4(26-406)-His
Type: binding
Conditions: pH 7.2, 25° C.
reported.property: kd (s⁻¹)

>>> result_number("H1H268P: anti-hANGPTL4 antibody, hIgG1 isotype, HCVR/LCVR SEQ ID NOs 42/44 (antibody, V domains shown) VH: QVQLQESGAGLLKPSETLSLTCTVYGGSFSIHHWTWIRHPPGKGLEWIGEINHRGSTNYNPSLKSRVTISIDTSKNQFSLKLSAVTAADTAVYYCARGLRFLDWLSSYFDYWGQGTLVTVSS VL: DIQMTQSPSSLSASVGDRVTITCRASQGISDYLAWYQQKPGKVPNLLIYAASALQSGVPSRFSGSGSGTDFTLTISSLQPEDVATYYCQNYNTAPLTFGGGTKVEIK")
0.0002
